biological target: Cholinesterase (Equus caballus, UniProt P81908)
Sequence (P81908 whole entry): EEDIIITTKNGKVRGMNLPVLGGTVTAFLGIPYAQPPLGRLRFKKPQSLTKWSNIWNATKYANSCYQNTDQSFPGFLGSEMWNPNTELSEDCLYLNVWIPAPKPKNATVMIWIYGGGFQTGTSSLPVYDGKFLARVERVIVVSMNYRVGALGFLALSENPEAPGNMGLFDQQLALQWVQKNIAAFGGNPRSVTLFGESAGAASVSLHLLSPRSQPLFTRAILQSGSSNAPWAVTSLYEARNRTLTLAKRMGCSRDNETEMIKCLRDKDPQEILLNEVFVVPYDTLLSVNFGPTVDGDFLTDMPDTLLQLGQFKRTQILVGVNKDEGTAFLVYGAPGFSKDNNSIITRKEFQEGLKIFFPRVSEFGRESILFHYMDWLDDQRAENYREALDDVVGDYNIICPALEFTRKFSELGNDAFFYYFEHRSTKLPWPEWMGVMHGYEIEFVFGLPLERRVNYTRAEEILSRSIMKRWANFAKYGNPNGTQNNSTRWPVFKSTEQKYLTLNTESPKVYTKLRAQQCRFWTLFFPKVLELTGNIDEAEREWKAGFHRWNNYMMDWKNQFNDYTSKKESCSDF
Lab note: cut-off is 8 µM. Strictly less in IC50 is criterion met. Exactly 8 µM or more is criterion not met.

Does COc1cc2c(cc1OC)C(=O)C(CC1CCN(Cc3cccc(Br)n3)CC1)C2 (stereo not given) have IC50 strictly under 8 µM? criterion not met

Does COc1cc2c(cc1OC)C(=O)C(CC1CCN(Cc3ncccc3C)CC1)C2 (stereo not given) have IC50 strictly under 8 µM? criterion not met

Does COc1cc2c(cc1OC)C(=O)C(CC1CCN(Cc3ccc(C)cc3)CC1)C2 (stereo not given) have IC50 strictly under 8 µM? criterion met

Does COc1cc2c(cc1OC)C(=O)C(CC1CCN(Cc3cccc(F)n3)CC1)C2 (stereo not given) have IC50 strictly under 8 µM? criterion not met

Does COc1cc2c(cc1OC)C(=O)C(CC1CCN(Cc3cccc(C)c3)CC1)C2 (stereo not given) have IC50 strictly under 8 µM? criterion met

Does COC(=O)c1cccc(CN2CCC(CC3Cc4cc(OC)c(OC)cc4C3=O)CC2)n1 (stereo not given) have IC50 strictly under 8 µM? criterion not met

Does COc1cc2c(cc1OC)C(=O)C(CC1CCN(Cc3ccccc3Cl)CC1)C2 (stereo not given) have IC50 strictly under 8 µM? criterion met

Does COc1cc2c(cc1OC)C(=O)C(CC1CCN(Cc3ccccc3[N+](=O)[O-])CC1)C2 (stereo not given) have IC50 strictly under 8 µM? criterion not met

Does COc1cc2c(cc1OC)C(=O)C(CC1CCN(Cc3ncc(C)cc3C)CC1)C2 (stereo not given) have IC50 strictly under 8 µM? criterion met

Reference source: ChEMBL document CHEMBL3870312
